Collected Ratio values appear next to each entry.
- Species: Homo sapiens
- PROCEDURE TEXT: Relative potency for human mineralocorticoid and progesterone receptors

Problem: Please indicate Ratio recorded for CCc1ccccc1/C=C1\Oc2ccc(F)cc2-c2ccc3c(c21)C(C)=CC(C)(C)N3
Result: 167

Problem: Please indicate Ratio recorded for CC1=CC(C)(C)Nc2ccc3c(c21)/C(=C/c1ccsc1)Oc1ccc(F)cc1-3
Result: > 1000

Problem: Please indicate Ratio recorded for CC1=CC(C)(C)Nc2ccc3c(c21)/C(=C/c1ccccc1)Oc1c(F)cccc1-3
Result: > 1000

Problem: Please indicate Ratio recorded for CC1=CC(C)(C)Nc2ccc3c(c21)/C(=C/c1ccccc1N(C)C)Oc1ccc(F)cc1-3
Result: > 1000

Problem: Please indicate Ratio recorded for CC1=CC(C)(C)Nc2ccc3c(c21)/C(=C/c1ncccc1C)Oc1ccc(F)cc1-3
Result: > 1000

====

Androgen receptor (Homo sapiens, UniProt P10275) IC50 data
Sequence (P10275 whole entry): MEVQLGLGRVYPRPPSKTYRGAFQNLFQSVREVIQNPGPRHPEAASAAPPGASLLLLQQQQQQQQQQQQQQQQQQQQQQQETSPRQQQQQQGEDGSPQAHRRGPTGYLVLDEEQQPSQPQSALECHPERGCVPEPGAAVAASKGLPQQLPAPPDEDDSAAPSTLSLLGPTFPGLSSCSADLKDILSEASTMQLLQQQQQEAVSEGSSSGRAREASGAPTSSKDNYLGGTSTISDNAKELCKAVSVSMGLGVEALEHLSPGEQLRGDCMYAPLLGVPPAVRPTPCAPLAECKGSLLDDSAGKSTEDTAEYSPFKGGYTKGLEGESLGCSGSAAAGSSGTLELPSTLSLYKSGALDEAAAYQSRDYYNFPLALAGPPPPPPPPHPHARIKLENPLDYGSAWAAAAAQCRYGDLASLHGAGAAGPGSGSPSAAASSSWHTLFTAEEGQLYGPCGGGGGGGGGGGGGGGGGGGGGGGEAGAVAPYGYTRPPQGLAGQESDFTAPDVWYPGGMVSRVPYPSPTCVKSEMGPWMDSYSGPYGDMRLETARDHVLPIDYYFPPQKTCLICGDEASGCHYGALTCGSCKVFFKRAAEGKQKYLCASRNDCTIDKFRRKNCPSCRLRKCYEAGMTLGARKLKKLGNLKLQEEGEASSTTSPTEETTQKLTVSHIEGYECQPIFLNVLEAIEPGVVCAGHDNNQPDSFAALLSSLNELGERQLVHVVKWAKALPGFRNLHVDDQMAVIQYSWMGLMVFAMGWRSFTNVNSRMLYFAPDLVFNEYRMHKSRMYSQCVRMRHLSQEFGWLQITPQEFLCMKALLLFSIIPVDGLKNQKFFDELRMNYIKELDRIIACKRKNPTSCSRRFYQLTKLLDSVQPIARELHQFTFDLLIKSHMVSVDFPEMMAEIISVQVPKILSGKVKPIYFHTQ

Example molecules with recorded IC50:
Problem: Print Androgen receptor (Homo sapiens, UniProt P10275) IC50 for CC1=CC(C)(C)Nc2ccc3c(c21)/C(=C/c1ccsc1)Oc1ccc(F)cc1-3 .
Result: 215 nM

Problem: Print Androgen receptor (Homo sapiens, UniProt P10275) IC50 for CC1=CC(C)(C)Nc2ccc3c(c21)/C(=C/c1ncccc1C)Oc1ccc(F)cc1-3 .
Result: 203 nM

Problem: Print Androgen receptor (Homo sapiens, UniProt P10275) IC50 for CC1=CC(C)(C)Nc2ccc3c(c21)/C(=C/c1ccco1)Oc1ccc(F)cc1-3 .
Result: 258 nM

Next:
Problem: Print Androgen receptor (Homo sapiens, UniProt P10275) IC50 for CC1=CC(C)(C)Nc2ccc3c(c21)/C(=C/c1ccccc1C)Oc1ccc(F)cc1-3 .
Result: 820 nM

====

- SYSTEM NAME: Progesterone receptor (Homo sapiens, UniProt P06401)
- Sequence (P06401 whole entry, canonical isoform): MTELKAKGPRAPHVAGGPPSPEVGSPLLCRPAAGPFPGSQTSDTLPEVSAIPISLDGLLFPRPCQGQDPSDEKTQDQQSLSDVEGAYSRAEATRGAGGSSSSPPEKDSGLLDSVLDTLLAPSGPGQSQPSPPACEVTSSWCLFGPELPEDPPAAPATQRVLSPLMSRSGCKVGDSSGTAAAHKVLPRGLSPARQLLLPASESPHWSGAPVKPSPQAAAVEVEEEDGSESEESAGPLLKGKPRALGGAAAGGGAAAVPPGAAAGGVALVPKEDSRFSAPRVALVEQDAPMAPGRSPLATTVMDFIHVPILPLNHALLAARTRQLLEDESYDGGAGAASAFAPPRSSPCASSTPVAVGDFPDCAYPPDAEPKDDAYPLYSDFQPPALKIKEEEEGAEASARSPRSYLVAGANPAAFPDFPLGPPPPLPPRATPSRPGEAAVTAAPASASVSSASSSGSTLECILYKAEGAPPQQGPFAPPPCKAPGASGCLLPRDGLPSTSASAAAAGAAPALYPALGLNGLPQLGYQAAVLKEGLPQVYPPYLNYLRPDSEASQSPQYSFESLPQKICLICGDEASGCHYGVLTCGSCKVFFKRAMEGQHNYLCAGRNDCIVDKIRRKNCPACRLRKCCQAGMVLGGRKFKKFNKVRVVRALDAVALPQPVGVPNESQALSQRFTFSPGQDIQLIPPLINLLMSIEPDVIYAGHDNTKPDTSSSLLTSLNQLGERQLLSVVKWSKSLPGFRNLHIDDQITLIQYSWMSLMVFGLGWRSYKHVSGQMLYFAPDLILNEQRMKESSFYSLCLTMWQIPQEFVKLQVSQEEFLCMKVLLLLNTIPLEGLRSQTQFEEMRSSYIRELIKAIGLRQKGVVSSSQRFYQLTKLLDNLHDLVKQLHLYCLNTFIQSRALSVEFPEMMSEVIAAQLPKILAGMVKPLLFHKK
- PROCEDURE TEXT: Binding affinity towards human progesterone receptor A isoform using progesterone as radioligand
Collected log10 Ki values appear next to each entry.
Parameter value (number): base-10 log of Ki in nM.

Example compounds with recorded log10 Ki:
Problem: Please indicate log10 Ki recorded for CCCc1ccccc1/C=C1\Oc2ccc(F)cc2-c2ccc3c(c21)C(C)=CC(C)(C)N3
Result: 0.20

Problem: Please indicate log10 Ki recorded for CC1=CC(C)(C)Nc2ccc3c(c21)/C(=C/c1ccccc1C=O)Oc1ccc(F)cc1-3
Result: 0.41

Problem: Please indicate log10 Ki recorded for CC1=CC(C)(C)Nc2ccc3c(c21)/C(=C/c1cccc(F)c1)Oc1c(F)cccc1-3
Result: 0.74

Next:
Problem: Please indicate log10 Ki recorded for CC1=CC(C)(C)Nc2ccc3c(c21)/C(=C/c1ccsc1)Oc1ccc(F)cc1-3
Result: 0.11

Problem: Please indicate log10 Ki recorded for CC1=CC(C)(C)Nc2ccc3c(c21)/C(=C/c1ccccc1C(C)C)Oc1ccc(F)cc1-3
Result: 0.28

Problem: Please indicate log10 Ki recorded for CC1=CC(C)(C)Nc2ccc3c(c21)/C(=C/c1ccncc1)Oc1ccc(F)cc1-3
Result: 0.18

Problem: Please indicate log10 Ki recorded for CC1=CC(C)(C)Nc2ccc3c(c21)/C(=C/c1ccccc1OC(F)(F)F)Oc1ccc(F)cc1-3
Result: 0.81

Problem: Please indicate log10 Ki recorded for CC1=CC(C)(C)Nc2ccc3c(c21)/C(=C/c1ccc(F)cc1)Oc1c(F)cccc1-3
Result: -0.15

Problem: Please indicate log10 Ki recorded for CC1=CC(C)(C)Nc2ccc3c(c21)/C(=C/c1ccccn1)Oc1ccc(F)cc1-3
Result: 0.96

Problem: Please indicate log10 Ki recorded for CC1=CC(C)(C)Nc2ccc3c(c21)/C(=C/c1ccccc1Cl)Oc1ccc(F)cc1-3
Result: 1.35

Problem: Please indicate log10 Ki recorded for CC1=CC(C)(C)Nc2ccc3c(c21)/C(=C/c1ccccc1)Oc1c(F)cccc1-3
Result: -0.21

Problem: Please indicate log10 Ki recorded for CC1=CC(C)(C)Nc2ccc3c(c21)/C(=C/c1ccccc1C#N)Oc1ccc(F)cc1-3
Result: 1.06

Problem: Please indicate log10 Ki recorded for CC1=CC(C)(C)Nc2ccc3c(c21)/C(=C/c1ccccc1C(F)(F)F)Oc1ccc(F)cc1-3
Result: 1.66
